target: GAL4-mPPARγ (Mus musculus); construct: expressed in transfected cells; host or cells: COS7; assay: GAL4-mPPARγ activation, transient transfection luciferase reporter in COS7 cells; type: cell-based; conditions: COS7; computed from EC50 in GraphPad Quick Calc
Sequence (P37238 with tags, fused parts or gaps limits assumed): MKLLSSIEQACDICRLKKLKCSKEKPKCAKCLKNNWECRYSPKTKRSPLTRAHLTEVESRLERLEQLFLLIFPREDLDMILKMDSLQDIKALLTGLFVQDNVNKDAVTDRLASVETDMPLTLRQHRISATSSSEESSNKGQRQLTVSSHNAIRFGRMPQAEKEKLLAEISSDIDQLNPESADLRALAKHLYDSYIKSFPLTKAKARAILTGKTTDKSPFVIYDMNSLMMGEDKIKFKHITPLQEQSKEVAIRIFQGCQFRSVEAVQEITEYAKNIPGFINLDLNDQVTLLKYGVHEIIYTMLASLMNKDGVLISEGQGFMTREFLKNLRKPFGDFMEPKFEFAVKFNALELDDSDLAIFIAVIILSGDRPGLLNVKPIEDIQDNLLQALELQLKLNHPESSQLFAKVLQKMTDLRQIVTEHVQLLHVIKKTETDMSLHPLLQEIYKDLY
property_measured: PPARγ agonists: EC10, Fig 1A / Fig 4A (µM)
Record the value in µM, omitting the unit from your answer.

compound	unit_annotation	reported
Fc1ccc(Oc2ccnc3cc(Cl)cc(Cl)c23)cc1	µM	14.24
CCC(C)(C)C(=O)OC1=C(c2ccc(Cl)cc2Cl)C(=O)OC12CCCCC2	µM	7.27

The measured PPARγ agonists: EC10, Fig 1A / Fig 4A associated with "CC(C)(C)c1ccc(CSc2cnn(C(C)(C)C)c(=O)c2Cl)cc1" reads 0.53

// recorded PPARγ agonists: EC10, Fig 1A / Fig 4A for CCC(C)(NC(=O)c1cc(Cl)c(C)c(Cl)c1)C(=O)CCl (stereo not shown) [Zoxamide] : 0.31
